Tested on: B. cereus ATCC 11778
Assay: NCCLS broth microdilution MIC
Format: cell-based, Bacillus cereus
Settings: C = B. cereus ATCC 11778
Text: Compounds according to this invention were screened for their in vitro activities against selected species of bacteria and fungi. […]
RESULT TYPE: Minimum Inhibitory Concentration (MIC)

{"columns": ["COMPOUND", "EXPERIMENTAL SYSTEM", "ENDPOINT RESULT"],
 "data": [
  ["Cn1cc(NC(=O)c2cc(NC(=O)CCNC(=O)c3cc(NC(=O)c4cc(NC(=O)c5cc(Br)c(Br)s5)cn4C)cn3C)cn2C)cc1C(=O)NCCC(=O)NCCN1CCCCC1 [Id-5]", "B. cereus ATCC 11778", "+++ (+++ = MIC ≦4)"],
  ["Cn1cc(NC(=O)c2cc(NC(=O)CCNC(=O)c3cc(NC(=O)c4cc(NC(=O)c5cc(Br)c(Br)s5)cn4C)cn3C)cn2C)cc1C(=O)NCCC(=O)NCC(C)(C)CN [Id-4]", "B. cereus ATCC 11778", "+++ (+++ = MIC ≦4)"],
  ["Cn1cc(NC(=O)c2cc(NC(=O)CCNC(=O)c3cc(NC(=O)c4cc(NC(=O)c5ccc(Br)s5)cn4C)cn3C)cn2C)cc1C(=O)NCCC(=O)NCC(C)(C)CN [Id-20]", "B. cereus ATCC 11778", ">32 µg/mL"],
  ["Cn1cc(NC(=O)c2cc(NC(=O)c3cc(NC(=O)c4cc(NC(=O)c5sccc5Cl)cn4C)cn3C)cn2C)cc1C(=O)NCCN1CCOCC1 [Ie-12]", "B. cereus ATCC 11778", "+++ (+++ = MIC ≦4)"]
]}

---

System: B. cereus ATCC 11778
Test: NCCLS broth microdilution MIC
Type: cell-based, Bacillus cereus
Details: C = B. cereus ATCC 11778
RESULT TYPE: Minimum Inhibitory Concentration (MIC)

{"columns": ["COMPOUND", "EXPERIMENTAL SYSTEM", "RESULT TYPE", "ENDPOINT RESULT"],
 "data": [
  ["Cn1cc(NC(=O)c2cc(NC(=O)c3nc(NC(=O)c4scc(Br)c4Cl)cn3C)cn2C)cc1C(=O)NCCN1CCSCC1 [Ig-10]", "B. cereus ATCC 11778", "Minimum Inhibitory Concentration (MIC)", "+++ (+++ = MIC ≦4)"],
  ["CCN(CC)CCNC(=O)CCNC(=O)c1cc(NC(=O)c2cc(NC(=O)CCNC(=O)c3cc(NC(=O)c4cc(NC(=O)c5ccc(Br)s5)cn4C)cn3C)cn2C)cn1C [Id-22]", "B. cereus ATCC 11778", "Minimum Inhibitory Concentration (MIC)", "+++ (+++ = MIC ≦4)"],
  ["Cc1csc(C(=O)Nc2cc(C(=O)Nc3cc(C(=O)Nc4cc(C(=O)NCCN5CCOCC5)n(C)c4)n(C)c3)n(C)c2)c1Cl [Ie-11]", "B. cereus ATCC 11778", "Minimum Inhibitory Concentration (MIC)", "+++ (+++ = MIC ≦4)"]
]}

---

System: 5′-AAAAAGTACAAAAA-3′
Assay type: binding
Conditions: DNA sequence 5′-AAAAAGTACAAAAA-3′; pH 7.0, 22° C.
RESULT TYPE: Equilibrium Association Constant (Ka)

{"columns": ["MOLECULAR STRING", "Equilibrium Association Constant (Ka)"],
 "data": [
  ["Cn1cc(NC(=O)c2cc(NC(=O)CCNC(=O)c3cc(NC(=O)c4cc(NC(=O)c5ccc(Br)s5)cn4C)cn3C)cn2C)cc1C(=O)NCCC(=O)NCCCCN", "≧1 × 10^11 M^−1"],
  ["Cn1cc(NC(=O)c2cc(NC(=O)CCNC(=O)c3cc(NC(=O)c4cc(NC(=O)c5cc(Br)c(Br)s5)cn4C)cn3C)cn2C)cc1C(=O)NCCC(=O)NCCN1CCCCC1", "1e+11 M⁻¹"],
  ["CN(C)CCCNC(=O)CCNC(=O)c1cc(NC(=O)c2cc(NC(=O)CCNC(=O)c3cc(NC(=O)c4cc(NC(=O)c5cc(Br)c(Br)s5)cn4C)cn3C)cn2C)cn1C", "≧1 × 10^11 M^−1"],
  ["CN(C)CCCNC(=O)CCNC(=O)c1cc(NC(=O)c2cc(NC(=O)CCNC(=O)c3cc(NC(=O)c4cc(NC(=O)c5ccc(Br)s5)cn4C)cn3C)cn2C)cn1C", "≧1 × 10^11 M^−1"],
  ["Cn1cc(NC(=O)c2cc(NC(=O)CCNC(=O)c3cc(NC(=O)c4cc(NC(=O)c5ccc(Br)s5)cn4C)cn3C)cn2C)cc1C(=O)NCCC(=O)NCCCNC1CCCCC1", "≧1 × 10^11 M^−1"],
  ["CCN(CC)CCCNC(=O)CCNC(=O)c1cc(NC(=O)c2cc(NC(=O)CCNC(=O)c3cc(NC(=O)c4cc(NC(=O)c5cc(Br)c(Br)s5)cn4C)cn3C)cn2C)cn1C", "≧1 × 10^11 M^−1"],
  ["CCN(CC)CCNC(=O)CCNC(=O)c1cc(NC(=O)c2cc(NC(=O)CCNC(=O)c3cc(NC(=O)c4cc(NC(=O)c5ccc(Br)s5)cn4C)cn3C)cn2C)cn1C", "≧1 × 10^11 M^−1"],
  ["Cn1cc(NC(=O)c2cc(NC(=O)CCNC(=O)c3cc(NC(=O)c4cc(NC(=O)c5cc(Br)c(Br)s5)cn4C)cn3C)cn2C)cc1C(=O)NCCC(=O)NCC(C)(C)CN", "5e+11 M⁻¹"]
]}

Q: Identify measured Equilibrium Association Constant (Ka) associated with CN(C)CC(C)(C)CNC(=O)CCNC(=O)c1cc(NC(=O)c2cc(NC(=O)CCNC(=O)c3cc(NC(=O)c4cc(NC(=O)c5cc(Br)c(Br)s5)cn4C)cn3C)cn2C)cn1C
Result: ≧1 × 10^11 M^−1

Q: Identify measured Equilibrium Association Constant (Ka) associated with CN1CCCN(C(=O)CCNC(=O)c2cc(NC(=O)c3cc(NC(=O)CCNC(=O)c4cc(NC(=O)c5cc(NC(=O)c6ccc(Br)s6)cn5C)cn4C)cn3C)cn2C)CC1
Result: ≧1 × 10^11 M^−1

Q: Identify measured Equilibrium Association Constant (Ka) associated with Cn1cc(NC(=O)c2cc(NC(=O)CCNC(=O)c3cc(NC(=O)c4cc(NC(=O)c5cc(Br)c(Br)s5)cn4C)cn3C)cn2C)cc1C(=O)NCCC(=O)NCCCCCCN
Result: 5e+09 M⁻¹

Q: Identify measured Equilibrium Association Constant (Ka) associated with CC(C)N(CCNC(=O)CCNC(=O)c1cc(NC(=O)c2cc(NC(=O)CCNC(=O)c3cc(NC(=O)c4cc(NC(=O)c5ccc(Br)s5)cn4C)cn3C)cn2C)cn1C)C(C)C
Result: ≧1 × 10^11 M^−1

Q: Identify measured Equilibrium Association Constant (Ka) associated with Cn1cc(NC(=O)c2cc(NC(=O)CCNC(=O)c3cc(NC(=O)c4cc(NC(=O)c5ccc(Br)s5)cn4C)cn3C)cn2C)cc1C(=O)NCCC(=O)NCCCCCCN
Result: ≧1 × 10^11 M^−1

Q: Identify measured Equilibrium Association Constant (Ka) associated with CC(C)N(CCNC(=O)CCNC(=O)c1cc(NC(=O)c2cc(NC(=O)CCNC(=O)c3cc(NC(=O)c4cc(NC(=O)c5cc(Br)c(Br)s5)cn4C)cn3C)cn2C)cn1C)C(C)C
Result: 5e+09 M⁻¹

---

Test system: S. pneumoniae ATCC 49619
Experiment: NCCLS broth microdilution MIC
Format: cell-based, Streptococcus pneumoniae
Conditions: F = S. pneumoniae ATCC 49619
RESULT TYPE: Minimum Inhibitory Concentration (MIC)

{"columns": ["MOLECULAR STRING", "EXPERIMENTAL SYSTEM", "RESULT TYPE", "ENDPOINT RESULT"],
 "data": [
  ["CN(C)CCN(C)C(=O)CCNC(=O)c1cc(NC(=O)c2cc(NC(=O)CCNC(=O)c3cc(NC(=O)c4cc(NC(=O)c5cc(Br)c(Br)s5)cn4C)cn3C)cn2C)cn1C", "S. pneumoniae ATCC 49619", "Minimum Inhibitory Concentration (MIC)", "+++ (+++ = MIC ≦4)"],
  ["Cn1cc(NC(=O)c2cc(NC(=O)c3cc(NC(=O)c4cc(Br)cs4)cn3C)cn2C)cc1C(=O)NCCN1CCOCC1", "S. pneumoniae ATCC 49619", "Minimum Inhibitory Concentration (MIC)", "+++ (+++ = MIC ≦4)"],
  ["CCN(CC)CCCNC(=O)CCNC(=O)c1cc(NC(=O)c2cc(NC(=O)CCNC(=O)c3cc(NC(=O)c4cc(NC(=O)c5cc(Br)c(Br)s5)cn4C)cn3C)cn2C)cn1C", "S. pneumoniae ATCC 49619", "Minimum Inhibitory Concentration (MIC)", "+++ (+++ = MIC ≦4)"]
]}
